Assay: Plasma protein binding (equilibrium dialysis), dog
Type: in vitro ADME
Conditions: pH 7.4, 37° C.
endpoint_label: fraction unbound at 4 h, 1 μM

{"mol_smiles": "COc1ccc(-c2nn([C@@H](C)c3oc4cccc(F)c4c(=O)c3-c3cccc(F)c3)c3ncnc(N)c23)cc1NS(C)(=O)=O", "measurement": 0.0415}

----------
IC50 by entry:
Biological target: PI3Kδ (Homo sapiens, UniProt O00329)
Experiment: Assay 1: Fluorescent (HTRF) determination of PI3 kinase enzyme activity, PI3Kδ
Format: biochemical
Description: Phosphoinositide 3 kinases (PI3K) belong to a class of lipid kinases that play a critical role in the regulation of several key cellular processes. […] The homogenous time resolved fluorescence (HTRF) assay allows detection of 3,4,5-triphosphate (PIPS) formed as a result of phosphorylation of phosphotidylinositol 4,5-biphosphate (PIP2) by PI3K isoforms such as α, β, γ or δ. […]
endpoint_label: IC50 (nM)

{"molecule": "COc1ccc(-c2nn([C@@H](C)c3oc4cccc(F)c4c(=O)c3-c3cccc(F)c3)c3ncnc(N)c23)cc1NS(C)(=O)=O [Compound A1]", "target_system": "PI3Kδ (Homo sapiens, UniProt O00329)", "endpoint_label": "IC50", "measurement": 30.5}
{"molecule": "COc1ccc(-c2nn(C(C)c3oc4cccc(F)c4c(=O)c3-c3cccc(F)c3)c3ncnc(N)c23)cc1NS(C)(=O)=O (racemic) [Compound A]", "target_system": "PI3Kδ (Homo sapiens, UniProt O00329)", "endpoint_label": "IC50", "measurement": 103}
{"molecule": "COc1ccc(-c2nn([C@H](C)c3oc4cccc(F)c4c(=O)c3-c3cccc(F)c3)c3ncnc(N)c23)cc1NS(C)(=O)=O [Compound A2]", "target_system": "PI3Kδ (Homo sapiens, UniProt O00329)", "endpoint_label": "IC50", "measurement": 92.9}

----------
Biological target: PI3Kα (Homo sapiens, UniProt P42336)
Sequence (P42336 whole entry, one chain of several): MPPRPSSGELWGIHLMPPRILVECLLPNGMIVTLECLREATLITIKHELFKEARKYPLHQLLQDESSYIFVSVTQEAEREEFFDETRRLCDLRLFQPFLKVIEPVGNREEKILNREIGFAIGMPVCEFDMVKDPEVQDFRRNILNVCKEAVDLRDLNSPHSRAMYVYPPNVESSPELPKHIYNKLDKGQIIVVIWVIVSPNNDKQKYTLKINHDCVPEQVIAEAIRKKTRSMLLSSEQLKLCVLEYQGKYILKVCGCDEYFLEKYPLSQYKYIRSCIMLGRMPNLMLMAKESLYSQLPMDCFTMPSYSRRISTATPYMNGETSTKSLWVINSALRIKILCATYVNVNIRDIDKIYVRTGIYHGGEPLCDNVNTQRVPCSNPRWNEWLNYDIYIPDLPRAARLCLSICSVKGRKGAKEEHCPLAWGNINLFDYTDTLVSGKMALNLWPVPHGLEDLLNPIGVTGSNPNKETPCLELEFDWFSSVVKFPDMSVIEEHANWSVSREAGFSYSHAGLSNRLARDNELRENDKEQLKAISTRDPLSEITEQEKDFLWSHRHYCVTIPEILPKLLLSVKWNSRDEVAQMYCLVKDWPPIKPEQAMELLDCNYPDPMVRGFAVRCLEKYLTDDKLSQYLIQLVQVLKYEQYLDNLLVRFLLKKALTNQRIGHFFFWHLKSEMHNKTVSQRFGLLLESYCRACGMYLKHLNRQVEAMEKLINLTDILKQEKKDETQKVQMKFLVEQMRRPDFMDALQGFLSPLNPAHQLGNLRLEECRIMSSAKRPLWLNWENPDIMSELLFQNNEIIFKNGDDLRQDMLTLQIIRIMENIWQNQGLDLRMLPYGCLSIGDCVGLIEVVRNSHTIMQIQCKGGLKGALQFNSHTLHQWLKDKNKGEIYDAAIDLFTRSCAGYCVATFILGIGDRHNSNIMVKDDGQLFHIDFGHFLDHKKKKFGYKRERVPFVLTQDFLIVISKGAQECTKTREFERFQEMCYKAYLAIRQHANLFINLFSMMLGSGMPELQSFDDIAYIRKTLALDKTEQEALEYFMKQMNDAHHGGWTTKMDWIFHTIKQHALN
Assay: Assay 1: Fluorescent (HTRF) determination of PI3 kinase enzyme activity, PI3Kα
Format: biochemical
Conditions: HTRF enzyme assay
endpoint_label: IC50

{"mol_smiles": "COc1ccc(-c2nn([C@@H](C)c3oc4cccc(F)c4c(=O)c3-c3cccc(F)c3)c3ncnc(N)c23)cc1NS(C)(=O)=O", "endpoint_label": "IC50", "measurement": "> 10000 nM"}

----------
AUC(0-t) by entry:
Test: Oral pharmacokinetics in rats
Format: in vivo
Conditions: plasma, Rat, 10 mg/kg

{"compound": "COc1ccc(-c2nn([C@@H](C)c3oc4cccc(F)c4c(=O)c3-c3cccc(F)c3)c3ncnc(N)c23)cc1NS(C)(=O)=O [Compound A1]", "AUC(0-t), µM·h": 97.8}
{"compound": "COc1ccc(-c2nn(C(C)c3oc4cccc(F)c4c(=O)c3-c3cccc(F)c3)c3ncnc(N)c23)cc1NS(C)(=O)=O (racemic) [Compound A]", "AUC(0-t), µM·h": 7.95}

----------
Test: Plasma protein binding (equilibrium dialysis), monkey
Format: in vitro ADME
Settings: pH 7.4, 37° C.

{"compound": "COc1ccc(-c2nn([C@@H](C)c3oc4cccc(F)c4c(=O)c3-c3cccc(F)c3)c3ncnc(N)c23)cc1NS(C)(=O)=O [Compound A1]", "fraction unbound at 4 h, 1 μM": 0.0529}

----------
Molecular target: PI3K delta (Homo sapiens)
Construct: endogenous in cells
Sequence (O00329 whole entry): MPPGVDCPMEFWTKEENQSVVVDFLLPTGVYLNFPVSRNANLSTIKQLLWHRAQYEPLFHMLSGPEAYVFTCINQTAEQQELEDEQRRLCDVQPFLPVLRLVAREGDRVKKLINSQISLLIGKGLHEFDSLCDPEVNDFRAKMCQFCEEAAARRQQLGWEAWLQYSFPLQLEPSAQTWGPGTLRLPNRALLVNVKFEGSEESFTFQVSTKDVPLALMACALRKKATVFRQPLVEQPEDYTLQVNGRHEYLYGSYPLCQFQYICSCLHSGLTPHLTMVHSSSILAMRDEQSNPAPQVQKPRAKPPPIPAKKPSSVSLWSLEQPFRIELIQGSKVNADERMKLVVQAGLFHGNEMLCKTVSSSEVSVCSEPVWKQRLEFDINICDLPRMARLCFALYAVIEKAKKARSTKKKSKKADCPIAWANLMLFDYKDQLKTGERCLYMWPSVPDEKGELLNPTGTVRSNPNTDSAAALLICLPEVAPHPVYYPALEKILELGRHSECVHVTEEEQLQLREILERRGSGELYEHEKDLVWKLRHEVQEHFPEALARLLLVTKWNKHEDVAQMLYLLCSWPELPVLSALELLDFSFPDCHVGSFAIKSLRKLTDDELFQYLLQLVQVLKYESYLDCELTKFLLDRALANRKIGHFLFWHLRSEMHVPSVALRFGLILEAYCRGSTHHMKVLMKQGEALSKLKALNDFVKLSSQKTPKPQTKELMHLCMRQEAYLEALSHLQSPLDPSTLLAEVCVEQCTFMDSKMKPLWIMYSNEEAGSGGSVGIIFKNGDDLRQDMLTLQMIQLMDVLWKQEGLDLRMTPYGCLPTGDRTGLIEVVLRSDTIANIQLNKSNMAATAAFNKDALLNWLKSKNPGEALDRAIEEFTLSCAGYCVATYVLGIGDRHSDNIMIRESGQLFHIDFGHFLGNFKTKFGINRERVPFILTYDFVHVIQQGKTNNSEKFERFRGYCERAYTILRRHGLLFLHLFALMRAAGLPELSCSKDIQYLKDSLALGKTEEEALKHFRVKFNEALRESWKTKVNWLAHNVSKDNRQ
Sequence (P27986 whole entry partner): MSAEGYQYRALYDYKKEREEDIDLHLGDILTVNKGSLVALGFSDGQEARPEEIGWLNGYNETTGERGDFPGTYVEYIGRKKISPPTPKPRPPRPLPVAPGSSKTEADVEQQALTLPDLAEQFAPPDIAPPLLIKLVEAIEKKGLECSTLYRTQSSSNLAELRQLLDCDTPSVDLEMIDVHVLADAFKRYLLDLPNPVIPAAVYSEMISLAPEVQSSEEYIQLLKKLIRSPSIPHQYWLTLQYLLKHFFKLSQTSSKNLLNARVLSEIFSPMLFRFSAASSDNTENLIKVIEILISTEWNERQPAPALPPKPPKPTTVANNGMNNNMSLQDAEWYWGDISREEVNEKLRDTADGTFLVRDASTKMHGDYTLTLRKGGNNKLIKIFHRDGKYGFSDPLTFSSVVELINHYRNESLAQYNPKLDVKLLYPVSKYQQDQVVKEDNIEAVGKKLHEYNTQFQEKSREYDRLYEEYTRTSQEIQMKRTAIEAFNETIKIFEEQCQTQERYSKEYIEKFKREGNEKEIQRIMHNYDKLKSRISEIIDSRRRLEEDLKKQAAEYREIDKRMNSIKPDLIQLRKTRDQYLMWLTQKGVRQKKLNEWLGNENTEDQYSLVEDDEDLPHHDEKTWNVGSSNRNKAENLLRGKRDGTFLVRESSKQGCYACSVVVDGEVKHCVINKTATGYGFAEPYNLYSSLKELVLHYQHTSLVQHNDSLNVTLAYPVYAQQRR
Experiment: Assay 4A1: Anti-IgM induced B-cell proliferation
Conditions: isolated human B-cells, 72 hours; read-out: Cellular IC50 PI3K delta (anti-IgM induced human B-cell proliferation)

{"mol_smiles": "COc1ccc(-c2nn([C@@H](C)c3oc4cccc(F)c4c(=O)c3-c3cccc(F)c3)c3ncnc(N)c23)cc1NS(C)(=O)=O", "IC50 (nM)": 11}

----------
Test: Plasma protein binding (equilibrium dialysis), mouse
Type: in vitro ADME
Settings: pH 7.4, 37° C.
endpoint_label: fraction unbound at 4 h, 1 μM

{"mol_smiles": "COc1ccc(-c2nn([C@@H](C)c3oc4cccc(F)c4c(=O)c3-c3cccc(F)c3)c3ncnc(N)c23)cc1NS(C)(=O)=O", "measurement": 0.0239}

----------
Target: PI3K gamma (Mus musculus)
Construct: endogenous in cells
Sequence (Q9JHG7 whole entry): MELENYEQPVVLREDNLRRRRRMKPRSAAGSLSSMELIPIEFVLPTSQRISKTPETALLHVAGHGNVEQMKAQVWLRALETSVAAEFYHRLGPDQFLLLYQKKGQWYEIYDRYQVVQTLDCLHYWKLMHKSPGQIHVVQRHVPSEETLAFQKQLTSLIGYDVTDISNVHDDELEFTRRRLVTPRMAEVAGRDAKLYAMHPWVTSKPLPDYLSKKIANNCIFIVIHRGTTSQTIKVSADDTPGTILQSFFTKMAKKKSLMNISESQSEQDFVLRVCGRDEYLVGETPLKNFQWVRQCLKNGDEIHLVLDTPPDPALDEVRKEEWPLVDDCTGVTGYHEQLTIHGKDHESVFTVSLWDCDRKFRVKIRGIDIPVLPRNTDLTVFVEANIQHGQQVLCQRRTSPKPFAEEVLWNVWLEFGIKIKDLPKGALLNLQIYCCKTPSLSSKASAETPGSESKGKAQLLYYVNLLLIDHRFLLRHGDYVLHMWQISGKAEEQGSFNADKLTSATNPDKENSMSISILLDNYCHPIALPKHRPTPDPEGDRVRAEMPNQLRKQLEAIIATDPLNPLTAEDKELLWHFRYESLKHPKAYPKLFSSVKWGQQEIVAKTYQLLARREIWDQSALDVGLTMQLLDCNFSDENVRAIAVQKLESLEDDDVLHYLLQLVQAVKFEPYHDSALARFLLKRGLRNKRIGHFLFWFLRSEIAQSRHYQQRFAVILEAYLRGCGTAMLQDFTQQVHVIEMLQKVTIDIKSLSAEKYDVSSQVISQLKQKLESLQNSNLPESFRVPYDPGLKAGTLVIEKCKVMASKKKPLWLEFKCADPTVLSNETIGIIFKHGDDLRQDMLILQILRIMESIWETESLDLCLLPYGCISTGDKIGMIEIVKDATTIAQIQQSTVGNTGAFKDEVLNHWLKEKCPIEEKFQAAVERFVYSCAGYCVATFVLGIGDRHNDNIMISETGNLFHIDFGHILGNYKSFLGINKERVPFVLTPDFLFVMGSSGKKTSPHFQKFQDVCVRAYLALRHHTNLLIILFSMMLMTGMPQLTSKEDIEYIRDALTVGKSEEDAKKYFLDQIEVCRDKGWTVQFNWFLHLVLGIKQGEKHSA
Experiment: Assay 4A3: c5a induced AktS473 phosphorylation in RAW 264.7 macrophages
Settings: c5a 50 ng/ml, read-out: Cellular IC50 PI3K gamma (c5a induced pAKT in RAW macrophages)

{"molecule": "COc1ccc(-c2nn([C@@H](C)c3oc4cccc(F)c4c(=O)c3-c3cccc(F)c3)c3ncnc(N)c23)cc1NS(C)(=O)=O [Compound A1]", "unit_tag": "nM", "IC50": 51.7}

----------
Assay: Oral pharmacokinetics in mice
Type: in vivo
Conditions: mouse, plasma, 10 mg/kg

{"compound": "COc1ccc(-c2nn([C@@H](C)c3oc4cccc(F)c4c(=O)c3-c3cccc(F)c3)c3ncnc(N)c23)cc1NS(C)(=O)=O [Compound A1]", "unit_tag": "µM·h", "AUC(0-t)": 7.49}
